Reference source: ChEMBL document CHEMBL1132186

- Target desc: Dihydrofolate reductase (Mycobacterium avium)
- Sequence (O30463 whole entry): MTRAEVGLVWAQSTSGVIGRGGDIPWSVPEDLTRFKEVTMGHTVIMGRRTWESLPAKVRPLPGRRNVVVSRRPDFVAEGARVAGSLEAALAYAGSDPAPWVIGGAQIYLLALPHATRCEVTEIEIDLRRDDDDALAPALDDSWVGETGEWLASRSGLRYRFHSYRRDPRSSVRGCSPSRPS
Measured quantity: IC50 (nM)
Numbers only here, please. The scale is nM.

Given "Nc1nc(N)c2nc(CN3c4ccccc4Sc4ccccc43)cnc2n1" , state its recorded IC50.
29

Also need "Nc1nc(N)c2nc(CN3c4ccccc4C=Cc4ccccc43)cnc2n1" , thanks.
12

One more compound: "Nc1nc(N)c2nc(CN3c4ccccc4Cc4ccccc43)cnc2n1"
17

What do you have for "Nc1nc(N)c2nc(CN(c3ccccc3)c3ccccc3)cnc2n1" ?
3700

----------
Entries and their Selectivity ratio values follow.
- Procedure summary: Ratio of Dihydrofolate reductase inhibitory activity in rat to Pneumocystis carinii
Would you mind answering with just the numeric figure?

Completed entries (count: 2):
[[record]]
compound_smiles = "Nc1nc(N)c2nc(CN3c4ccccc4Sc4ccccc43)cnc2n1"
observed = 1.7

[[record]]
compound_smiles = "Nc1nc(N)c2nc(CN3c4ccccc4CCc4ccccc43)cnc2n1"
observed = 3.6


Entry "Nc1nc(N)c2nc(CN3c4ccccc4C=Cc4ccccc43)cnc2n1" : reported Selectivity ratio = ?
21

Can you handle "Nc1nc(N)c2nc(Cn3c4ccccc4c4ccccc43)cnc2n1" next?
0.55

What would you report for "Nc1nc(N)c2nc(CN3c4ccccc4Cc4ccccc43)cnc2n1" ?
0.64

Repeat for the following molecule: "Nc1nc(N)c2nc(CN(c3ccccc3)c3ccccc3)cnc2n1"
0.82

----------
- Target desc: Dihydrofolate reductase (Rattus norvegicus, UniProt Q920D2)
- Sequence (Q920D2 whole entry): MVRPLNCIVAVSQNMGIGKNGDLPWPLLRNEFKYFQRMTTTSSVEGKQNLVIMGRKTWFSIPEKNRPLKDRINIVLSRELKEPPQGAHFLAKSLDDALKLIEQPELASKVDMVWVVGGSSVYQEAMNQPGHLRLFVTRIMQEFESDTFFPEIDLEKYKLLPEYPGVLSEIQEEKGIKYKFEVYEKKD
Measured quantity: IC50 (nM)
Number only, in nM; omit the unit.

Past entries and their recorded results:
[[record]]
compound_smiles = "Nc1nc(N)c2nc(CN3c4ccccc4Cc4ccccc43)cnc2n1"
measured_quantity = "IC50"
observed = 27

[[record]]
compound_smiles = "Nc1nc(N)c2nc(CN3c4ccccc4Sc4ccccc43)cnc2n1"
measured_quantity = "IC50"
observed = 200

[[record]]
compound_smiles = "Nc1nc(N)c2nc(CN(c3ccccc3)c3ccccc3)cnc2n1"
measured_quantity = "IC50"
observed = 4000


Value lookup for IC50; key = "Nc1nc(N)c2nc(Cn3c4ccccc4c4ccccc43)cnc2n1"
55

How about "Nc1nc(N)c2nc(CN3c4ccccc4Oc4ccccc43)cnc2n1" ?
13000

----------
- Target desc: Bifunctional dihydrofolate reductase-thymidylate synthase (Toxoplasma gondii)
- Sequence (Q07422 whole entry): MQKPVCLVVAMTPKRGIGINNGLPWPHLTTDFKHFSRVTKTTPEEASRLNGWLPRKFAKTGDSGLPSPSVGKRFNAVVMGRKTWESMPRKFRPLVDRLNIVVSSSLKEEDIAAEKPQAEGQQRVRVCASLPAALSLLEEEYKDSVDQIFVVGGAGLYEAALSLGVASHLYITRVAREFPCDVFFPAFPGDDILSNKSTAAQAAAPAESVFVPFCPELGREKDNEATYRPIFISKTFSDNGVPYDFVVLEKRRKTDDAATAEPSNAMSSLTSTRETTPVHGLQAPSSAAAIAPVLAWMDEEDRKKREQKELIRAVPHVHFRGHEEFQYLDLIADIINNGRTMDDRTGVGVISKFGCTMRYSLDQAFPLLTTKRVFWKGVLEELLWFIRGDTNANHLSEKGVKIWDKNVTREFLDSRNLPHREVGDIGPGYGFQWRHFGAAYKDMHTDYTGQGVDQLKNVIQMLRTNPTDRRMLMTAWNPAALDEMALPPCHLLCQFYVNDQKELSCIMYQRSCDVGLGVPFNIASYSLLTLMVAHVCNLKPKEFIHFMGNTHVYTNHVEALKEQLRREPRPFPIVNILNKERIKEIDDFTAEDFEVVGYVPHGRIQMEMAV
- Procedure summary: Inhibitory activity against DHFR (Dihydrofolate reductase) from Toxoplasma gondii.
Measured quantity: pIC50
The read-out pIC50 is expressed as -log10 of concentration in moles per litre.

Query: pIC50; subject: "Nc1nc(N)c2nc(Cn3c4ccccc4c4ccccc43)cnc2n1"
7.92

Subsequent entry: "Nc1nc(N)c2nc(CN3c4ccccc4Sc4ccccc43)cnc2n1"
6.96

Can you check "Nc1nc(N)c2nc(CN3c4ccccc4Cc4ccccc43)cnc2n1" next?
7.54

How about this molecule: "Nc1nc(N)c2nc(CN3c4ccccc4C=Cc4ccccc43)cnc2n1"
7.37

What about this molecule? "Nc1nc(N)c2nc(CN3c4ccccc4Oc4ccccc43)cnc2n1"
5.66
